B1: LOXL2 (parent)
chain: FSPDGPSRFRKAYKPEQPLVRLRG

Variants of: B1
ASSAY PROTOCOL: protein stability index of a GFP-peptide fusion (GPS, HEK-293T) (PSI 1-6); higher = more stable;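 note: lentivirally expressed fusions sorted by FACS into six bins by GFP to DsRed ratio, PSI derived from sequencing read proportions per bin multiplied by bin number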
ASSAY CONDITIONS: c terminus: a fixed tail appended
MEASURED PARAMETER: protein stability index

1. S7R :: 2.05
2. G24S :: 1.41
3. F9M :: 2.56
4. D4L :: 1.78
5. Q17V :: 2.21
6. G5E :: 2.35
7. A12R :: 1.42
8. R10S :: 3.35
9. P18I :: 1.95
10. A12N :: 2.11
11. K11R :: 2.72
12. P3N :: 1.73
13. A12Q :: 1.96
14. P6L :: 3.07
15. G24P :: 1.82
16. P18S :: 1.8
17. P6Q :: 2.16
18. Y13Q :: 2.38
19. R23D :: 2.78
20. A12P :: 2.13
21. R8E :: 1.81
22. F1Q :: 3.85
23. F9R :: 2.58
24. P3W :: 1.66
25. R21N :: 1.61
26. R10E :: 2.5
27. F1I :: 2.95
28. F9W :: 2.45
29. G24L :: 3.27
30. G24Q :: 2.72
31. V20T :: 1.92
32. K14V :: 2.71
33. P3S :: 2.31
34. V20Q :: 1.4
35. S2E :: 3.62
36. R8P :: 2.76
37. D4Q :: 2.57
38. R8T :: 2.1
39. Q17A :: 2.07
40. L22W :: 1.47
41. G5L :: 2.02
42. P6E :: 2
43. K14I :: 2.86
44. P15R :: 2.88
45. L22I :: 2.42
46. S7N :: 2.89
47. G5V :: 1.59
48. Y13T :: 1.69
49. R23I :: 2.31
50. G5A :: 1.47
51. K11H :: 1.64
52. G24I :: 1.44
53. F9V :: 2.05
54. P3Y :: 2.13
55. P18F :: 1.11
56. Y13F :: 1.91
57. R8A :: 2.89
58. A12F :: 1.57
59. F9L :: 2.01
60. F9E :: 3.71
61. Y13V :: 3.86
62. K11I :: 1.76
63. S2V :: 2.07
64. Q17C :: 2.65
65. L19T :: 1.89
66. S7H :: 2.54
67. P18A :: 2.07
68. G24D :: 1.8
69. K14S :: 1.48
70. P18E :: 1.82
